system: 5637; assay: cells; conditions: Homo sapiens, 5637, 24 h
Description: Antiproliferative activity against human 5637 cells assessed as inhibition of cell growth after 24 hrs by MTT assay
observation type: pIC50
pIC50 field: float, defined as -log10 of concentration (mol/L).

Incoming: Recorded pIC50 for O=C1N[C@H]2[C@H](CS[C@H]2CCCCC(=O)OCCCC[Te]c2ccccc2)N1 , please?
Outgoing: 5.24

Incoming: Would you kindly repeat that for O=C1N[C@H]2[C@H](CS[C@H]2CCCCC(=O)OCCCCC[Te]c2ccccc2)N1 ?
Outgoing: 5.12

* * *

assay: Antioxidant activity assessed as half life of DPPH radical scavenging activity at 500 uM for 180 mins measured every 30 mins relative to control; assay type: functional
Task for the reader: assign each of the following molecules its reported T1/2.

Incoming: Recorded T1/2 for c1ccc([Se][Se]c2ccccc2)cc1 , please?
Outgoing: > 180 min

Incoming: Would you kindly repeat that for O=C1N[C@H]2[C@H](CS[C@H]2CCCCC(=O)OCCCC[Te]c2ccccc2)N1 ?
Outgoing: 18 min

Incoming: Would you kindly repeat that for O=C1N[C@H]2[C@H](CS[C@H]2CCCCC(=O)OCCCCC[Te]c2ccccc2)N1 ?
Outgoing: 23 min

Incoming: Would you kindly repeat that for Cc1cc(C(C)(C)C)c(O)c(C(C)(C)C)c1 ?
Outgoing: 20.7 min
